- protocol.details: Confirmation Concentration-Response Assay for Cell signaling CRE-BLA (Fsk stim)
- measurement.parameters: CHO CRE-bla reporter, NKH477 EC10 stim, FRET ratio; series mostly up to 38.3 µM
Results filed as inconclusive are left out. Activity calls are given as the source filed them. Calls come from the whole dose curve; as a rule, active = well fitted activation curve with a large enough effect in the signal ratio, with a control signal flat (not every such curve was filed as active); inconclusive = small, poorly fitted or top-dose-only effect, or a change in a side signal; inactive = flat fitted curve, though single readings scatter; the % refers to the signal ratio.
Classes used: active, inactive

COc1ccc(CCNC(=O)CSc2nc(C)nc3c2oc2ccccc23)cc1OC | active
COc1ccc(/C(O)=C(\C#N)c2nc3ccccc3n2C)cc1OC | active
O=c1[nH]c(SCc2ccccc2Cl)nc2c1cnn2-c1ccccc1 | active
Cc1cc(C)nc(N2CCN(c3nc(C)nc4c3oc3ccccc34)CC2)n1 | inactive
Cc1ccc(-n2ncc3c(=O)[nH]c(SCC(=O)N4CCOCC4)nc32)cc1 | inactive

* * *

- protocol.details: Confirmation Concentration-Response Assay for Cell signaling CRE-BLA (Fsk stim)
- measurement.parameters: CHO CRE-bla reporter (cAMP response element driving beta-lactamase), NKH477 EC10 stim, FRET ratio; series mostly up to 38.3 µM
Results filed as inconclusive are left out. Active and inactive are the calls of the source. Calls follow the shape of the dose curve; as a rule, active = well fitted activation curve with a large enough effect in the signal ratio, with a control signal flat (not every such curve was filed as active); inconclusive = small, poorly fitted or top-dose-only effect, or a change in a side signal; inactive = flat fitted curve, though single readings scatter; the % refers to the signal ratio.
Outcomes: active, inactive

COC(=O)c1ccc(CSc2ccc3nnc(-c4cccc(F)c4)n3n2)o1 | active
CC[C@]1(O)C[C@@H]2CN(CCc3c([nH]c4ccccc34)[C@](C(=O)OC)(c3cc4c(cc3OC)N(C)[C@H]3[C@](O)(C(=O)OC)[C@@H](C(=O)OC)[C@@]5(CC)C=CCN6CC[C@@]43[C@@H]65)C2)C1 | active
CN1C(=O)NC(c2ccccc2)C2=C1CN(Cc1ccccc1)C2=O (stereo not given) | inactive
O=C(Nc1ccccc1O)c1cc(S(=O)(=O)N2CCOCC2)ccc1Cl | inactive
Cc1cc(-c2nnc3n2N=C(c2ccc(-c4ccccc4)cc2)CS3)n[nH]1 | active
CSc1nc2ccc(Nc3nc(N4CCOCC4)nc(N4CCOCC4)n3)cc2s1 | active
CCc1nc(Nc2ccc3nccnc3c2)c2oc3ccccc3c2n1 | active
CCOC(=O)c1ccccc1NC(=O)c1cc(S(=O)(=O)N2CCOCC2)ccc1F | active
CCOC(=O)C1=C(CN2CCC(C)CC2)NC(=O)NC1c1ccc(Cl)cc1 (stereo not given) | active
COC(=O)Nc1nc2ccc(C(=O)c3cccs3)cc2[nH]1 | active
Cc1ccc(Nc2c3c(nc4ncnn24)CCC3)cc1 | inactive
O=S(=O)(Nc1cccc(-c2nc3cccnc3s2)c1)c1ccc2c(c1)OCCO2 | active
CCN(CC)c1nc2ccccc2n2cnnc12 | active
CC1CCc2c(sc3nc(C4CC4)nc(SCC(=O)NCc4ccco4)c23)C1 (stereo not given) | inactive
Fc1ccc(C2=Nn3c(Cc4ccccc4)nnc3SC2)cc1 | inactive
CCCN(C#N)c1nc(NCC)nc(NC(C)C)n1 | active
CCCN(CCC)c1nc2ccccc2n2c(C)nnc12 | active
CC[C@]1(O)C[C@@H]2CN(CCc3c([nH]c4ccccc34)[C@](C(=O)OC)(c3cc4c(cc3OC)N(C=O)[C@H]3[C@@](O)(C(=O)OC)[C@H](C(=O)OC)[C@@]5(CC)C=CCN6CC[C@]43[C@H]65)C2)C1 | active
Cn1c(/C(C#N)=C/Nc2ccccn2)nc2ccccc21 | inactive
Cc1nn(-c2ccccc2)c2sc(C(=O)N(CC(=O)NC(C)(C)C)Cc3ccco3)cc12 | active
